# TESTED_SYSTEM: HDAC6 (Homo sapiens (Human))
# EXPERIMENT_SUMMARY: HDAC6 in vitro enzymatic assay (fluorescence)
# Format: biochemical
# CONDITIONS_USED: Table 3; read-out: IC50 (nM) for inhibition of HDAC6
Where a name gives a salt, the structure may show the parent alone.
PROPERTY_MEASURED: IC50 (nM)

O=C(NO)c1ccc2oc(-c3ccc(F)c(F)c3)nc2c1    36
CCN(CC)Cc1cc2ccc(C(=O)NO)cc2o1 [Example 117, trifluoroacetate]    64
O=C(NO)c1ccc2sc(-c3cc(F)ccc3O)cc2c1    37
CN(Cc1ccccc1)c1nc2cc(C(=O)NO)ccc2n1C    30
O=C(NO)c1ccc2oc(-c3cccc(Br)c3)nc2c1    7

I: O=C(NO)c1ccc2oc(-c3ccc(-c4ccncc4)cc3)nc2c1
II: COc1cccc2cc(-c3nc4cc(C(=O)NO)ccc4s3)oc12
Exam item: Between the entries labelled I and II , which has a larger IC50 value on record? Identify your pick by its label.
Marked response: II
(II: 33 nM, I: 13 nM)

P: O=C(NO)c1ccc2oc(N(Cc3ccccc3)c3ccccc3)nc2c1
Q: O=C(NO)c1ccc2oc(N3CCC(Cc4ccccc4)CC3)nc2c1
Exam item: Field: entry with larger IC50 (options P / Q ). Selection: enter the item's label.
Marked response: Q
(Q: 73 nM, P: 27 nM)

----------
# TESTED_SYSTEM: HDAC2 (Homo sapiens (Human), UniProt Q92769)
# Sequence (Q92769 whole entry): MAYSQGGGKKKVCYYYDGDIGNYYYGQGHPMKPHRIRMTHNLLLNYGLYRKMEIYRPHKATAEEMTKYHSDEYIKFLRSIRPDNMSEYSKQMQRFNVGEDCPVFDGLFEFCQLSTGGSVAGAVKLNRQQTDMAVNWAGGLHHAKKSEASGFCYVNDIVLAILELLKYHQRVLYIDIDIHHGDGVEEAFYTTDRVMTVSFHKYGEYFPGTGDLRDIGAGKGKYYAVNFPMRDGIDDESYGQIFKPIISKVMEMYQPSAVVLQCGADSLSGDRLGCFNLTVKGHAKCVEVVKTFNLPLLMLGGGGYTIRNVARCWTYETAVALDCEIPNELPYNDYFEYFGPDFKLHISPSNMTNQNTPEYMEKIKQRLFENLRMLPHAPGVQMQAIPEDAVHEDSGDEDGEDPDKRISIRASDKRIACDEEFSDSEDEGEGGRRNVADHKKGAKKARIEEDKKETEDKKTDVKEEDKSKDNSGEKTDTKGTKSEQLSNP
# EXPERIMENT_SUMMARY: HDAC2 in vitro enzymatic assay (fluorescence)
# Type: biochemical
# CONDITIONS_USED: Table 4 selectivity profiling
PROPERTY_MEASURED: IC50 (nM)

Consider the worked cases shown below.
O=C(NO)c1ccc2oc(-c3ccccc3Cl)nc2c1    52000
O=C(NO)c1ccc2oc(-c3ccc(C4CC4)cc3)nc2c1    10000
CC(C)c1ccc(-c2nc3cc(C(=O)NO)ccc3s2)cc1    5500
O=C(NO)c1ccc2oc(-c3ccc(OC(F)(F)F)cc3)nc2c1    76000
O=C(NO)c1ccc2nc(Nc3cccc(OCc4ccccc4)c3)[nH]c2c1    24000
CC(C)c1ccc(-c2nc3cc(C(=O)NO)ccc3o2)cc1    13000
CC(C)c1ccc(-c2cc3cc(C(=O)NO)cnc3o2)cc1    2000
O=C(NO)c1ccc2oc(-c3ccc(C(F)(F)F)cc3)nc2c1    11000

P: O=C(NO)c1ccc2sc(-c3cccnc3)cc2c1
Q: O=C(NO)c1ccc2nc(-c3cccc4cccnc34)sc2c1
Exam item: Which gives the smaller IC50 number: P or Q ? Give the label under which the chosen entry appears.
Marked response: Q
(Q: 19000 nM, P: 55000 nM)

----------
# TESTED_SYSTEM: HDAC6 (Homo sapiens (Human), UniProt Q9UBN7)
# Sequence (Q9UBN7 whole entry): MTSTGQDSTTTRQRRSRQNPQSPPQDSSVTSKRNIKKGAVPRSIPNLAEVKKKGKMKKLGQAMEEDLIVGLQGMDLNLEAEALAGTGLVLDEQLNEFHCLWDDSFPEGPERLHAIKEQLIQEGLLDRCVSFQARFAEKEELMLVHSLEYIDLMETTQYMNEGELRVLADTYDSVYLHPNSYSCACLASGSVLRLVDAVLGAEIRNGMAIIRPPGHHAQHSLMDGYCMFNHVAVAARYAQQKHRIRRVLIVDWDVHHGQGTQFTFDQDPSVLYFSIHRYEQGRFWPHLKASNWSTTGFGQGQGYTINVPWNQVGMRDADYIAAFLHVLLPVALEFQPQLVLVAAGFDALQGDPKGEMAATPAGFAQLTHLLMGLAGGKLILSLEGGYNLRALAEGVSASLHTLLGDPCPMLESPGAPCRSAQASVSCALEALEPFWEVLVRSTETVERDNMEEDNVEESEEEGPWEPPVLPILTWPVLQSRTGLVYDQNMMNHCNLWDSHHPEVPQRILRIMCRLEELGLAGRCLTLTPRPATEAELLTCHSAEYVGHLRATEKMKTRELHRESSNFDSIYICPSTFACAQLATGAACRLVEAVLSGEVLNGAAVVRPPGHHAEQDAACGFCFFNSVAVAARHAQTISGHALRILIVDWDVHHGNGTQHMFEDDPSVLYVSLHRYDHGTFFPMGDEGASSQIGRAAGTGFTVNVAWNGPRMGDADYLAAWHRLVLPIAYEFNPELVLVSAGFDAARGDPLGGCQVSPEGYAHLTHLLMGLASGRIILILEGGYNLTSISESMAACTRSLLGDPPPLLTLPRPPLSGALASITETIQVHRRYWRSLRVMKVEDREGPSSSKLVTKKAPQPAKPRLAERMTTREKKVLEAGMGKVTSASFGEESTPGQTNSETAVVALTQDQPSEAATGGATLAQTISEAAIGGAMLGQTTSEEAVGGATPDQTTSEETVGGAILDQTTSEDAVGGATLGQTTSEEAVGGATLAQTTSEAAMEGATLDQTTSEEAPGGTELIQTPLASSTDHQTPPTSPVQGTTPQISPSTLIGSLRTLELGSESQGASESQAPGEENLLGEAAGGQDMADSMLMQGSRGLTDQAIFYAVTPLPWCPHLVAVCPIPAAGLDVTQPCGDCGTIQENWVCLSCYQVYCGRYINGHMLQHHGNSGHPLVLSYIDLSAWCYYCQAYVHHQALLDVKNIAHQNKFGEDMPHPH
# EXPERIMENT_SUMMARY: HDAC6 in vitro enzymatic assay (fluorescence)
# Assay type: biochemical
# CONDITIONS_USED: Table 3; read-out: IC50 (nM) for inhibition of HDAC6
PROPERTY_MEASURED: IC50 (nM)

Examples from the recorded data:
O=C(NO)c1ccc2oc(-c3ccc4[nH]nnc4c3)nc2c1    26
CN(Cc1ccccc1)c1nc2cc(C(=O)NO)ccc2o1    63
O=C(NO)c1ccc2oc(-c3ccc(C4CC4)cc3)nc2c1    10
O=C(NO)c1ccc2oc(Nc3cccc(OCc4ccccc4)c3)nc2c1    31
O=C(NO)c1ccc2nc(-c3ccc(F)cc3)oc2c1    34

P: Cn1cc(-c2cc3cc(C(=O)NO)ccc3s2)cn1
Q: CC(C)c1ccc(-c2cc3cc(C(=O)NO)cnc3s2)cc1
Exam item: Which is greater in IC50, the first item P or the second item Q ? Indicate your choice by writing its label.
Marked response: Q
(Q: 42 nM, P: 16 nM)

----------
# TESTED_SYSTEM: HDAC8 (Homo sapiens (Human), UniProt Q9BY41)
# Sequence (Q9BY41 whole entry): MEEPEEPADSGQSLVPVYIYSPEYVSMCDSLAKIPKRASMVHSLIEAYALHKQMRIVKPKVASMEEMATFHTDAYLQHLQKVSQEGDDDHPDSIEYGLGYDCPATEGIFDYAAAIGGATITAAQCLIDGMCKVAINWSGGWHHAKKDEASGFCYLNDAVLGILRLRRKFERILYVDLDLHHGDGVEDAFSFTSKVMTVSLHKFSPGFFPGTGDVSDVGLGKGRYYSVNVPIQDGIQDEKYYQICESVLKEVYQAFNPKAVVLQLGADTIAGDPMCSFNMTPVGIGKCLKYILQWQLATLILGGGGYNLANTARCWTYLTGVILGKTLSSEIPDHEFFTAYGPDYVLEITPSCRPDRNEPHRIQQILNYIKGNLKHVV
# EXPERIMENT_SUMMARY: HDAC8 in vitro enzymatic assay (fluorescence)
# Assay type: biochemical
# CONDITIONS_USED: Table 4 selectivity profiling
PROPERTY_MEASURED: IC50 (nM)

O=C(NO)c1ccc2oc(-c3ccccc3Cl)nc2c1    880

1: CC(C)c1ccc(-c2cc3ccc(C(=O)NO)cc3s2)cc1
2: O=C(NO)c1ccc2oc(-c3ccc(-c4ccccc4F)cc3)nc2c1
Exam item: Looking at 1 and 2 , which one comes out lower in IC50 terms? Refer to your chosen item by its label in the answer.
Marked response: 2
(2: 700 nM, 1: 1100 nM)

----------
# TESTED_SYSTEM: UniProtKB Q92769
# EXPERIMENT_SUMMARY: HDAC2 in vitro enzymatic assay (fluorescence)
# Format: biochemical
# CONDITIONS_USED: Table 4 selectivity profiling
Where a name gives a salt, the structure may show the parent alone.
PROPERTY_MEASURED: IC50

For orientation, consider the following solved cases.
COc1cccc(-c2cc3ccc(C(=O)NO)cc3o2)c1    6900 nM
CCN(CC)Cc1cc2ccc(C(=O)NO)cc2o1 [Example 117, trifluoroacetate]    69000 nM
CC(C)c1ccc(Nc2nc3cc(C(=O)NO)ccc3o2)cc1    > 200000 nM
COc1ccc(-c2ccc(-c3nc4cc(C(=O)NO)ccc4o3)c(F)c2)cn1    > 200000 nM
O=C(NO)c1ccc2oc(-c3ccc(-c4ccccc4F)cc3)nc2c1    > 200000 nM

Here is the next item to consider.
Exam item: So what's the measured IC50 for this one? COc1ccc(-c2ccc(-c3nc4cc(C(=O)NO)ccc4o3)cc2)cn1
Marked response: > 200000 nM
